# Test system: 843782-103-R-J1-PDC complex spheroid viability;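 also: viability read after seven days of compound exposure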
# method: Anticancer human tumor 843782-103-R-J1-PDC patient-derived lung adenocarcinoma cell line growth inhibition [RAS]
# conditions: second compound 0.003 µM; first compound 1 µM; hits give low values
Simple rule here: viability, T/C less than 30% is 1 (yes), otherwise 0 (no).

[[record]]
molecule = "CC(Nc1ccc2c(c1)OCCn1cc(N3C(=O)OCC3C(F)F)nc1-2)C(N)=O (centres undefined) + CCn1c(-c2cccnc2C(C)OC)c2c3cc(ccc31)N1CCOC(CC(NC(=O)C(C(C)C)N(C)C(=O)C3(F)CCN(C(=O)C#CC(C)(C)N(C)C)CC3)C(=O)N3CCCC(N3)C(=O)OCC(C)(C)C2)C1"
classification = "1 (yes)"


# check: viability, T/C < 30% for CCC(CC)c1cc(NC2CCC(N)C2)n2nccc2n1 (centres undefined) + CCn1c(-c2cccnc2C(C)OC)c2c3cc(ccc31)N1CCOC(CC(NC(=O)C(C(C)C)N(C)C(=O)C3(F)CCN(C(=O)C#CC(C)(C)N(C)C)CC3)C(=O)N3CCCC(N3)C(=O)OCC(C)(C)C2)C1
0 (no)

A record lists CCN1CCN(Cc2ccc(Nc3ncc(F)c(-c4cc(F)c5nc(C)n(C(C)C)c5c4)n3)nc2)CC1 + CCn1c(-c2cccnc2C(C)OC)c2c3cc(ccc31)N1CCOC(CC(NC(=O)C(C(C)C)N(C)C(=O)C3(F)CCN(C(=O)C#CC(C)(C)N(C)C)CC3)C(=O)N3CCCC(N3)C(=O)OCC(C)(C)C2)C1 . Is its viability, T/C below 30%?
0 (no)

Determine if CC(Nc1ccc2c(c1)OCCn1cc(N3C(=O)OCC3C(F)F)nc1-2)C(N)=O (centres undefined) + CCn1c(-c2cc(N3CCN(C)CC3)cnc2C(C)OC)c2c3cc(ccc31)-c1csc(n1)CC(NC(=O)C1CC1C)C(=O)N1CCCC(N1)C(=O)OCC(C)(C)C2 shows viability, T/C strictly lower than 30%.
1 (yes)
